Assay: The drug is tested on Clostridium asparagiforme strain: DSM15981 for biotransformation. The drug concentrations were measured before and after a 12-h incubation by liquid-chromatography-coupled mass spectrometry (LC–MS)
Assay type: ADME
Set-up: dose 2 uM, timepoint 0 vs 12 hours
Settings: enterocloster asparagiformis, 2 µM
assayReadout: Bacterial Biotransformation

INSERT INTO measurements (molecule, assayreadout, valuereported) VALUES
  ('CN(C)CC(c1ccc(O)cc1)C1(O)CCCCC1.O=C(O)CCC(=O)O (stereo not given) [DESVENLAFAXINE SUCCINATE]', 'Bacterial Biotransformation', 'Compound NOT metabolized'),
  ('CN1CCN2c3ccccc3Cc3ccccc3C2C1 (stereo not given)', 'Bacterial Biotransformation', 'Compound NOT metabolized'),
  ('Nc1nc(NC2CC2)c2ncn([C@H]3C=C[C@@H](CO)C3)c2n1.Nc1nc(NC2CC2)c2ncn([C@H]3C=C[C@@H](CO)C3)c2n1.O=S(=O)(O)O [ABACAVIR SULFATE]', 'Bacterial Biotransformation', 'Compound NOT metabolized'),
  ('CC(CN1c2ccccc2Sc2ccccc21)N(C)C (stereo not given)', 'Bacterial Biotransformation', 'Compound NOT metabolized'),
  ('CNS(=O)(=O)Cc1ccc2[nH]cc(CCN(C)C)c2c1.O=C(O)CCC(=O)O [SUMATRIPTAN SUCCINATE]', 'Bacterial Biotransformation', 'Compound NOT metabolized'),
  ('CN1CCC(=C2c3ccccc3CCc3cccnc32)CC1.O=C(O)/C=C\C(=O)O.O=C(O)/C=C\C(=O)O [AZATADINE MALEATE]', 'Bacterial Biotransformation', 'Compound NOT metabolized'),
  ('COc1ccc(CN2CCNCC2)c(OC)c1OC.Cl.Cl [TRIMETAZIDINE DIHYDROCHLORIDE]', 'Bacterial Biotransformation', 'Compound metabolized'),
  ('CC(=O)O[C@H]1C(=O)[C@@]2(C)[C@H]([C@H](OC(=O)c3ccccc3)[C@]3(O)C[C@H](OC(=O)[C@H](O)[C@@H](NC(=O)c4ccccc4)c4ccccc4)C(C)=C1C3(C)C)[C@]1(OC(C)=O)CO[C@@H]1C[C@@H]2O', 'Bacterial Biotransformation', 'Compound NOT metabolized'),
  ('CC(=O)CC(c1ccccc1)c1c(O)c2ccccc2oc1=O (stereo not given)', 'Bacterial Biotransformation', 'Compound NOT metabolized'),
  ('C[C@]12C=CC(=O)C=C1CC[C@@H]1[C@@H]2C(=O)C[C@@]2(C)[C@H]1CC[C@]2(O)C(=O)CO', 'Bacterial Biotransformation', 'Compound NOT metabolized'),
  ('COc1ccc(C(CN(C)C)C2(O)CCCCC2)cc1 (stereo not given)', 'Bacterial Biotransformation', 'Compound NOT metabolized'),
  ('C=CCc1ccccc1OCC(O)CNC(C)C (stereo not given)', 'Bacterial Biotransformation', 'Compound NOT metabolized'),
  ('C[C@@H](CO)NC(=O)[C@@H]1C=C2c3cccc4[nH]cc(c34)C[C@H]2N(C)C1.O=C(O)/C=C\C(=O)O [ERGONOVINE MALEATE]', 'Bacterial Biotransformation', 'Compound metabolized'),
  ('CC[C@H](C)C(=O)O[C@H]1C[C@@H](C)C=C2C=C[C@H](C)[C@H](CC[C@@H]3C[C@@H](O)CC(=O)O3)[C@H]21', 'Bacterial Biotransformation', 'Compound metabolized'),
  ('CN(C/C=C/C#CC(C)(C)C)Cc1cccc2ccccc12', 'Bacterial Biotransformation', 'Compound NOT metabolized');

// provenance: ChEMBL document CHEMBL5303573
